test system: PBMC; assay: Cytotoxicity against human PBMC assessed as reduction in cell growth incubated for 5 days by CellTiter 96 AQueous One Solution cell proliferation assay; type: cell-based; conditions: pbmc, 120 h
CC50 overview
Number in µM, nothing else.

INSERT INTO measurements (sample_smiles, number) VALUES
  ('CCOC(=O)c1c(Cc2ccccc2)nc(=O)n(Cc2ccc(C(=O)/C=C(\O)C(=O)OC(C)C)cc2)c1C', 77);

So, CCOC(=O)c1c(CC)nc(SCc2ccc(C(=O)/C=C(\O)C(=O)OC(C)C)cc2)nc1-c1ccc(F)cc1 ? Its CC50 was 43.2

====

target: Human immunodeficiency virus type 1 integrase (Human immunodeficiency virus 1); assay: Inhibition of recombinant HIV-1 integrase 3'-processing activity expressed in Escherichia coli BL21(DE3) cells using 32P-labeled DNA substrate after 1 hr by densitometric analysis
Sequence (Q7ZJM1 whole entry): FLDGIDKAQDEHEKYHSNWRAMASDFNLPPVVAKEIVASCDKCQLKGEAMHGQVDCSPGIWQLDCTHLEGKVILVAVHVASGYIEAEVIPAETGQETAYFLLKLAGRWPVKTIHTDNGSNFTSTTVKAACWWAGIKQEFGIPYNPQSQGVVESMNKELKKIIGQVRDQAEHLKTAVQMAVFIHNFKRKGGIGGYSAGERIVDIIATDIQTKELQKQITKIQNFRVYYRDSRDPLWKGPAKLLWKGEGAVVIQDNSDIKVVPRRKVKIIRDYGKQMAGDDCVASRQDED
IC50 overview
Number in µM, nothing else.

INSERT INTO assay_data (sample_smiles, value_units, number) VALUES
  ('CCOC(=O)c1c(CC)nc(SCc2ccc(C(=O)/C=C(\O)C(=O)O)cc2)nc1-c1ccc(OC)cc1', 'µM', 30.7);

So, CCOC(=O)c1c(-c2ccccc2)nc(SCc2ccc(C(=O)/C=C(\O)C(=O)O)cc2)nc1-c1ccc(OC)cc1 ? Its IC50 was 23

So, CCOC(=O)c1c(-c2ccccc2)nc(=O)n(Cc2ccc(C(=O)/C=C(\O)C(=O)O)cc2)c1-c1ccccc1 ? Its IC50 was 18.4

So, CCOC(=O)c1c(-c2ccccc2)nc(SCc2ccc(C(=O)/C=C(\O)C(=O)O)cc2)nc1-c1ccc(F)cc1 ? Its IC50 was 22

So, CCOC(=O)c1c(-c2ccccc2)nc(SCc2ccc(C(=O)/C=C(\O)C(=O)O)cc2)nc1-c1ccccc1 ? Its IC50 was 30

So, CCOC(=O)c1c(-c2ccc(F)cc2)nc(=O)n(Cc2ccc(C(=O)/C=C(\O)C(=O)O)cc2)c1C(C)C ? Its IC50 was 40

So, CCOC(=O)c1c(-c2ccccc2)nc(=O)n(Cc2ccc(C(=O)/C=C(\O)C(=O)O)cc2)c1CC ? Its IC50 was 19.1
